Data origin, for the record: paper PMC8762078

Biological target: T1, GABARAPL2 (human, UniProt P60520 1-117)
T1 construct: GABARAPL2, human ATG8 protein of the GABARAP subfamily; 15N-labelled (13C,15N for assignment) in M9 minimal medium for the NMR experiments; Cloned into pGEX-4T-1 between BamHI and XhoI; thrombin cleavage may leave a few vector residues at the N-terminus (surmised); also called hATG8; source: E. coli BL21 (DE3), purified (Glutathione Sepharose, thrombin cleavage, ion exchange, gel filtration); not …
T1 sequence (P60520 whole entry): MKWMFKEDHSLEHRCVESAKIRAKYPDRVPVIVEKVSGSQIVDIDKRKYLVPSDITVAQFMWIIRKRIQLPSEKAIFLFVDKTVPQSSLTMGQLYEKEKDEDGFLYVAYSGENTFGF
Test: ITC; MicroCal VP-ITC, 30 °C; protein 10 μM in the cell, 10 μl injections of peptide (100-150 μM); 25 mM potassium phosphate, 150 mM NaCl, pH 7.0; no reducing agent; one site binding model; two independent measurements
Conditions: both partners purified
MEASURED ATTRIBUTE: Kd (µM)
Number only, in µM; omit the unit.

What does the record list as Kd for SGGDDDWTHVSS (also called L341V-mutant peptide; mutant AIM; source: synthetic peptide; bought: Genosphere Biotechnologies and Peptide Synthetics) [p62 L341V-AIM peptide] ?
6.99
